Let's look at some compounds and their measured MIC Coagulase Negative Staphylococcus (GC 4548).
- System: Staphylococcus sp.
- test: in vitro antibacterial evaluation, MIC by broth dilution
- Assay type: cell-based
- testConditions: broth dilution, 18 hours at 35° C.; strain GC 4548
Enter your answer as a number in µg/mL; do not include the unit.

Below, each entry is followed by its recorded MIC Coagulase Negative Staphylococcus (GC 4548) result.
CC(C)=CCOc1cccc(C2OCC3OC(OC4C(CO)OC(Oc5ccc(CC6NC(=O)C(C(C)c7ccccc7)NC(=O)CNC(=O)C(CO)NC(=O)C(C(O)C7CNC(=N)N7C7OC(CO)C(O)C(O)C7O)NC(=O)C(C(O)C7CNC(=N)N7)NC6=O)cc5)C(O)C4O)C(O)C(O)C3O2)c1 (stereo not shown) [Example 165] ... 8
CC(c1ccccc1)C1NC(=O)CNC(=O)C(CO)NC(=O)C(C(O)C2CNC(=N)N2C2OC(CO)C(O)C(O)C2O)NC(=O)C(C(O)C2CNC(=N)N2)NC(=O)C(Cc2ccc(OC3OC(CO)C(OC4OC5COC(CC6CCCCC6)OC5C(O)C4O)C(O)C3O)cc2)NC1=O (stereo not shown) [Example 122] ... 1
COc1ccc2cc(COCC3OC(OC4C(CO)OC(Oc5ccc(CC6NC(=O)C(C(C)c7ccccc7)NC(=O)CNC(=O)C(CO)NC(=O)C(CC7CNC(=N)N7C7OC(CO)C(O)C(O)C7O)NC(=O)C(CC7CNC(=N)N7)NC6=O)cc5)C(O)C4O)C(O)C(O)C3O)ccc2c1 (stereo not shown) [Example 245] ... 2

Next compound, please.
Q) Quick check: MIC Coagulase Negative Staphylococcus (GC 4548) of CC(C)CC1OCC2OC(OC3C(CO)OC(Oc4ccc(CC5NC(=O)C(C(C)c6ccccc6)NC(=O)CNC(=O)C(CO)NC(=O)C(C(O)C6CNC(=N)N6C6OC(CO)C(O)C(O)C6O)NC(=O)C(C(O)C6CNC(=N)N6)NC5=O)cc4)C(O)C3O)C(O)C(O)C2O1 (stereo not shown) [Example 107] ?
A) 1
